Where these numbers come from: patent EP1027361B1

# System: Staphylococcus aureus CMX 553
# TEST DESCRIPTION: in vitro antibacterial activity, agar dilution MIC
# Type: cell-based
# SETTINGS: organism code FF, BHI agar, 35-37 °C, 20 to 24 hours
REPORTED METRIC: minimum inhibitory concentration (MIC)
Give only the figure.

Below: 3 compounds and their reported minimum inhibitory concentration (MIC).
CC[C@H]1OC(=O)[C@H](C)[C@@H](O[C@H]2C[C@@](C)(OC)[C@@H](O)[C@H](C)O2)[C@H](C)[C@@H](O[C@@H]2O[C@H](C)C[C@H](N(C)C)[C@H]2O)[C@@]2(C)C[C@@H](C)C(=O)[C@H](C)[C@H]3N(CCNC(=O)c4ccccc4C=CCO2)C(=O)O[C@]13C [Example 4]	1.56
CC[C@H]1OC(=O)[C@H](C)[C@@H](O[C@H]2C[C@@](C)(OC)[C@@H](O)[C@H](C)O2)[C@H](C)[C@@H](O[C@@H]2O[C@H](C)C[C@H](N(C)C)[C@H]2O)[C@@]2(C)C[C@@H](C)C(=O)[C@H](C)[C@H]3N(CCNC(=O)Cc4ccccc4C=CCO2)C(=O)O[C@]13C [Example 6]	0.78
CC[C@H]1OC(=O)[C@H](C)C(=O)[C@H](C)[C@@H](O[C@@H]2O[C@H](C)C[C@H](N(C)C)[C@H]2O)[C@@]2(C)C[C@@H](C)C(=O)[C@H](C)[C@H]3N(CCC=CCO2)C(=O)O[C@]13C [Example 18]	0.78

In the following, a different compound is considered.
Q: # minimum inhibitory concentration (MIC) lookup, item CC[C@H]1OC(=O)[C@H](C)C(=O)[C@H](C)[C@@H](O[C@@H]2O[C@H](C)C[C@H](N(C)C)[C@H]2O)[C@@]2(C)C[C@@H](C)C(=O)[C@H](C)[C@H]3N(CCOCc4ccccc4C=CCO2)C(=O)O[C@]13C [Example 12]
A: 0.78

----------
# Test system: Streptococcus Pheumoniae ATCC6303
# TEST DESCRIPTION: in vitro antibacterial activity, agar dilution MIC
# Format: cell-based
# Set-up: unit not given here
# SETTINGS: organism code XX, BHI agar, 35-37 °C, 20 to 24 hours
Class 1: minimum inhibitory concentration (MIC) at least 0.06. Class -1: minimum inhibitory concentration (MIC) below 0.06.

Q: Please check the record CC[C@H]1OC(=O)[C@H](C)C(=O)[C@H](C)[C@@H](O[C@@H]2O[C@H](C)C[C@H](N(C)C)[C@H]2O)[C@@]2(C)C[C@@H](C)C(=O)[C@H](C)[C@H]3N(CC=CCO2)C(=O)O[C@]13C [Example 16] and state if its minimum inhibitory concentration (MIC) is at or above 0.06.
A: 1

----------
Reported minimum inhibitory concentration (MIC) is given for each of the following molecules.
# Test system: Streptococcus Pheumoniae 5979
# TEST DESCRIPTION: in vitro antibacterial activity, agar dilution MIC
# Type: cell-based
# SETTINGS: organism code ZZ, BHI agar, 35-37 °C, 20 to 24 hours
Give only the figure.

CC[C@H]1OC(=O)[C@H](C)[C@@H](O[C@H]2C[C@@](C)(OC)[C@@H](OC(C)=O)[C@H](C)O2)[C@H](C)[C@@H](O[C@@H]2O[C@H](C)C[C@H](N(C)C)[C@H]2O)[C@@]2(C)C[C@@H](C)C(=O)[C@H](C)[C@H]3N(CCNCc4cccc(c4)C=CCO2)C(=O)O[C@]13C	64

In the following, a different molecule is considered.
Q: # minimum inhibitory concentration (MIC) lookup, item "CC[C@H]1OC(=O)[C@H](C)C(=O)[C@H](C)[C@@H](O[C@@H]2O[C@H](C)C[C@H](N(C)C)[C@H]2O)[C@@]2(C)C[C@@H](C)C(=O)[C@H](C)[C@H]3N(CCOCc4ccccc4C=CCO2)C(=O)O[C@]13C"
A: 128

----------
Reported minimum inhibitory concentration (MIC) is given for each of the following compounds.
# Test system: Enterococcus faecium ATCC 8043
# TEST DESCRIPTION: in vitro antibacterial activity, agar dilution MIC
# Type: cell-based
# SETTINGS: organism code II, BHI agar, 35-37 °C, 20 to 24 hours
Give only the figure.

Q: What reported minimum inhibitory concentration (MIC) corresponds to "CC[C@H]1OC(=O)[C@H](C)[C@@H](O[C@H]2C[C@@](C)(OC)[C@@H](O)[C@H](C)O2)[C@H](C)[C@@H](O[C@@H]2O[C@H](C)C[C@H](N(C)C)[C@H]2O)[C@@]2(C)C[C@@H](C)C(=O)[C@H](C)[C@H]3N(CCCCO2)C(=O)O[C@]13C" on Enterococcus faecium ATCC 8043?
A: 0.1

Q: What reported minimum inhibitory concentration (MIC) corresponds to "CC[C@H]1OC(=O)[C@H](C)C(=O)[C@H](C)[C@@H](O[C@@H]2O[C@H](C)C[C@H](N(C)C)[C@H]2O)[C@@]2(C)C[C@@H](C)C(=O)[C@H](C)[C@H]3N(CCC=CCO2)C(=O)O[C@]13C" on Enterococcus faecium ATCC 8043?
A: 0.39

Q: What reported minimum inhibitory concentration (MIC) corresponds to "CC[C@H]1OC(=O)[C@H](C)C(=O)[C@H](C)[C@@H](O[C@@H]2O[C@H](C)C[C@H](N(C)C)[C@H]2O)[C@@]2(C)C[C@@H](C)C(=O)[C@H](C)[C@H]3N(CCOCc4ccccc4C=CCO2)C(=O)O[C@]13C" on Enterococcus faecium ATCC 8043?
A: 0.1

Q: What reported minimum inhibitory concentration (MIC) corresponds to "CC[C@H]1OC(=O)[C@H](C)[C@@H](O[C@H]2C[C@@](C)(OC)[C@@H](O)[C@H](C)O2)[C@H](C)[C@@H](O[C@@H]2O[C@H](C)C[C@H](N(C)C)[C@H]2O)[C@@]2(C)C[C@@H](C)C(=O)[C@H](C)[C@H]3N(CCNC(=O)c4ccccc4C=CCO2)C(=O)O[C@]13C" on Enterococcus faecium ATCC 8043?
A: 0.39

Q: What reported minimum inhibitory concentration (MIC) corresponds to CC[C@H]1OC(=O)[C@H](C)[C@@H](O[C@H]2C[C@@](C)(OC)[C@@H](O)[C@H](C)O2)[C@H](C)[C@@H](O[C@@H]2O[C@H](C)C[C@H](N(C)C)[C@H]2O)[C@](C)(O)C[C@@H](C)C(=O)[C@H](C)[C@@H](O)[C@]1(C)O [Ery. A, Erythromycin A, reference compound] on Enterococcus faecium ATCC 8043?
A: 0.05

Q: What reported minimum inhibitory concentration (MIC) corresponds to "CC[C@H]1OC(=O)[C@H](C)[C@@H](O[C@H]2C[C@@](C)(OC)[C@@H](O)[C@H](C)O2)[C@H](C)[C@@H](O[C@@H]2O[C@H](C)C[C@H](N(C)C)[C@H]2O)[C@@]2(C)C[C@@H](C)C(=O)[C@H](C)[C@H]3N(CCC=CCO2)C(=O)O[C@]13C" on Enterococcus faecium ATCC 8043?
A: 0.05

Q: What reported minimum inhibitory concentration (MIC) corresponds to CC[C@H]1OC(=O)[C@H](C)[C@@H](O[C@H]2C[C@@](C)(OC)[C@@H](O)[C@H](C)O2)[C@H](C)[C@@H](O[C@@H]2O[C@H](C)C[C@H](N(C)C)[C@H]2O)[C@@]2(C)C[C@@H](C)C(=O)[C@H](C)[C@H]3N(CC(O)CC=CCO2)C(=O)O[C@]13C (stereo partly shown) on Enterococcus faecium ATCC 8043?
A: 0.1

----------
Reported minimum inhibitory concentration (MIC) is given for each of the following molecules.
# Tested on: Streptococcus Pheumoniae ATCC6303
# TEST DESCRIPTION: in vitro antibacterial activity, agar dilution MIC
# Type: cell-based
# Design: unit not given here
# SETTINGS: organism code XX, BHI agar, 35-37 °C, 20 to 24 hours
Give only the figure.

Below: 3 molecules and their reported minimum inhibitory concentration (MIC).
CC[C@H]1OC(=O)[C@H](C)[C@@H](O[C@H]2C[C@@](C)(OC)[C@@H](O)[C@H](C)O2)[C@H](C)[C@@H](O[C@@H]2O[C@H](C)C[C@H](N(C)C)[C@H]2O)[C@@]2(C)C[C@@H](C)C(=O)[C@H](C)[C@H]3N(CCNC(=O)c4ccccc4C=CCO2)C(=O)O[C@]13C [Example 4]	0.03
CC[C@H]1OC(=O)[C@H](C)[C@@H](O[C@H]2C[C@@](C)(OC)[C@@H](O)[C@H](C)O2)[C@H](C)[C@@H](O[C@@H]2O[C@H](C)C[C@H](N(C)C)[C@H]2O)[C@@]2(C)C[C@@H](C)C(=O)[C@H](C)[C@H]3N(CCCCO2)C(=O)O[C@]13C [Example 15]	0.03
CC[C@H]1OC(=O)[C@H](C)[C@@H](O[C@H]2C[C@@](C)(OC)[C@@H](O)[C@H](C)O2)[C@H](C)[C@@H](O[C@@H]2O[C@H](C)C[C@H](N(C)C)[C@H]2O)[C@@]2(C)C[C@@H](C)C(=O)[C@H](C)[C@H]3N(CCNC(=O)Cc4ccccc4C=CCO2)C(=O)O[C@]13C [Example 6]	0.03

Q: # minimum inhibitory concentration (MIC) lookup, item CC[C@H]1OC(=O)[C@H](C)C(=O)[C@H](C)[C@@H](O[C@@H]2O[C@H](C)C[C@H](N(C)C)[C@H]2O)[C@@]2(C)C[C@@H](C)C(=O)[C@H](C)[C@H]3N(CCOCc4ccccc4C=CCO2)C(=O)O[C@]13C [Example 12]
A: 0.25
